Cited source: ChEMBL document CHEMBL4513216

assay: Toxicity liver stage against HepG2, at 10uM; format: cell-based; parameters: test concentration 10 uM, cell line HepG2-A16-CD81EGFP; settings: human, HepG2-A16-CD81EGFP cells; read-out: INHIBITION
Endpoint Name: cytotoxicity at 10 µM (%)
Please state the figure in %; there is no need to write the unit.

# annotated cases, reported cytotoxicity at 10 µM shown
>>> result_number("CC(C)[C@H]1CN(c2ccncc2)C[C@@H]1NS(=O)(=O)N(C)C")
4.56
>>> result_number("Cc1cnn(CC2CCCN2C(=O)CCc2c(C)nn(C)c2C)c1 (centres undefined)")
0.407
>>> result_number("COc1cnc(N2CCCN(Cc3ccc(F)cc3)CC2)nc1")
-5.41
>>> result_number("Cc1nc(N2CCCC2)nc2c1CN(C(=O)N1CCOCC1)CC2")
6.17
>>> result_number("Cc1nc(-c2cncnc2C2CCCNC2)no1 (centres undefined)")
6.88
>>> result_number("Cc1c[nH]c(C2COCCN2C(=O)c2n[nH]c(=O)c3ccccc23)n1 (centres undefined)")
-0.555

Problem: // query cytotoxicity at 10 µM value for entry "COc1ccc(-c2cc[nH]n2)cc1CNC1CCCC1"
Result: -52.8

Problem: // query cytotoxicity at 10 µM value for entry "Cc1nc(CNC(=O)N2CCN(c3ccc(Cl)cn3)CC2)sc1C"
Result: 3.92

Problem: // query cytotoxicity at 10 µM value for entry CC(C)Cc1noc(CN2CCCC(CNS(N)(=O)=O)C2)n1 (centres undefined)
Result: -4.88

Problem: // query cytotoxicity at 10 µM value for entry "c1cnc2c(c1)cc(C1CCOCC1)n2CCN1CCOCC1"
Result: 0.487

Problem: // query cytotoxicity at 10 µM value for entry "Cc1cc(C)n(C2CCN(S(C)(=O)=O)CC2)n1"
Result: 15.7

Problem: // query cytotoxicity at 10 µM value for entry "Cc1cc(=O)n2c3c(cc(S(=O)(=O)NC4CC4)cc13)CCC2"
Result: -32.3

Problem: // query cytotoxicity at 10 µM value for entry "c1cncc(CNc2ncnc3c2CCN(Cc2ccsc2)CC3)c1"
Result: 7.91

Problem: // query cytotoxicity at 10 µM value for entry O=C1CC(c2ccccc2)C2(CCN(Cc3nccs3)CC2)N1 (centres undefined)
Result: 4.67

Problem: // query cytotoxicity at 10 µM value for entry COCC(=O)NCC1(COc2cccnc2)C[C@@H](O)[C@@H](O)C1 (some centres undefined)
Result: 2.52

Problem: // query cytotoxicity at 10 µM value for entry "CC(C)N1CCC2(CCNCC2)C1=O"
Result: -2.98

====

assay: Toxicity liver stage against HepG2, at 10uM; assay type: cell-based; parameters: test concentration 10 uM, cell line HepG2-A16-CD81EGFP; conditions: human, HepG2-A16-CD81EGFP cells; read-out: INHIBITION
Catalogue of cytotoxicity at 10 µM readings, one per entry.
Please state the figure in %; there is no need to write the unit.

# annotated cases, reported cytotoxicity at 10 µM shown
>>> result_number("CN(C)C(=O)CO[C@H]1CN(Cc2cccc(C#N)c2)[C@@H]2COC[C@H]12")
11.4
>>> result_number("CCSc1ccc(NC(=O)NC(C)c2c(C)nn(C)c2C)cn1 (configuration not stated)")
-2.6
>>> result_number("O=C(NCC1(O)CCSC1)c1ccoc1 (configuration not stated)")
-12.7
>>> result_number("O=C(NC1CCCC1)c1nc2c(o1)CN(C(=O)CO)C2")
10

Next, consider the following molecule.
Problem: // query cytotoxicity at 10 µM value for entry "c1cncc(O[C@H]2COCCN(Cc3c[nH]c4ccccc34)C2)c1"
Result: 0.208

====

assay: Toxicity liver stage against HepG2, at 10uM; assay type: cell-based; parameters: test concentration 10 uM, cell line HepG2-A16-CD81EGFP; details: human, HepG2-A16-CD81EGFP cells; read-out: INHIBITION
Endpoint Name: cytotoxicity at 10 µM (%)
Please state the figure in %; there is no need to write the unit.

# annotated cases, reported cytotoxicity at 10 µM shown
>>> result_number("CCN(Cc1ccc2c(c1)OCO2)S(=O)(=O)N(C)C(C)C")
8.55
>>> result_number("O=C(Cc1ccc2c(c1)OCCO2)NC1CCCC1")
-3.07
>>> result_number("COCCN1CCC(Nc2ccc(C#N)cc2F)CC1")
-3.68
>>> result_number("CNc1nccc(C2CCCCN2Cc2cnn3cccnc23)n1 (configuration not stated)")
0.247
>>> result_number("COCCOC1CCN(C(=O)NCc2coc3ccccc23)CC1")
-8.93
>>> result_number("CCOCC1CN(c2ccc(C)nn2)Cc2cnn(CC)c21 (configuration not stated)")
9.41

Problem: // query cytotoxicity at 10 µM value for entry "Cc1ccc(C(=O)N2CCn3cc(CN4CCCCC4)nc3C2)o1"
Result: 4.75

Problem: // query cytotoxicity at 10 µM value for entry "Cc1occc1C(=O)N(CCN(C)C)Cc1ccccn1"
Result: 7.65

Problem: // query cytotoxicity at 10 µM value for entry "COCc1nn(CC2CC2)c2c1CN(Cc1cccs1)CC2"
Result: 0.994

Problem: // query cytotoxicity at 10 µM value for entry "CNC(=O)c1cc(NC(=O)NC2CC2)ccc1F"
Result: 5.13

Problem: // query cytotoxicity at 10 µM value for entry "CCCNC(=O)Nc1ccc2c(c1)N(S(=O)(=O)CC)CC2"
Result: 1.97

Problem: // query cytotoxicity at 10 µM value for entry "CCN1CCN(C(=O)Cn2nc(C(F)(F)F)c(Br)c2C2CC2)CC1"
Result: -8.78

====

Catalogue of cytotoxicity at 10 µM readings, one per entry.
assay: Toxicity liver stage against HepG2, at 10uM; assay type: cell-based; design: test concentration 10 uM, cell line HepG2-A16-CD81EGFP; conditions: human, HepG2-A16-CD81EGFP cells; read-out: INHIBITION
Please state the figure in %; there is no need to write the unit.

# annotated cases, reported cytotoxicity at 10 µM shown
>>> result_number("Cc1nc(C2CCN(S(C)(=O)=O)CC2)nc2c1CCC(=O)N2CC(C)C")
3.44
>>> result_number("Cc1noc(C)c1CNC(=O)Nc1ccc(N2CCOC(C)C2)cc1 (stereo unspecified)")
-2.35
>>> result_number("Cc1cc2c(=O)n3c(nc2s1)CCN(Cc1ccncc1)CC3")
10.9
>>> result_number("O=S(=O)(Cc1ccccc1F)NCCN1CCOCC1")
24.8
>>> result_number("CCCc1nc(C)cc(N2CCC3(CCC(=O)N(CCOC)C3)CC2)n1")
9.51

Problem: // query cytotoxicity at 10 µM value for entry "Cc1ccc2c(c1)CCCN2C(=O)c1cncc(Br)c1"
Result: -8.79

====

test: Toxicity liver stage against HepG2, at 10uM; format: cell-based; design: test concentration 10 uM, cell line HepG2-A16-CD81EGFP; conditions: human, HepG2-A16-CD81EGFP cells; read-out: INHIBITION
Catalogue of cytotoxicity at 10 µM readings, one per entry.
Please state the figure in %; there is no need to write the unit.

# annotated cases, reported cytotoxicity at 10 µM shown
>>> result_number("Cc1cc(C(=O)N2CC[C@@H]3CN(CCC(C)C)S(=O)(=O)[C@@H]3CC2)no1")
1.58
>>> result_number("Cc1ccc(C(=O)N2CCCC(N(C)C(=O)OC(C)(C)C)C2)o1 (stereo not drawn)")
-54
>>> result_number("Cc1nc(N2CCCCC2)ncc1-c1cc(O)nc(N2CCCCC2)n1")
11.8
>>> result_number("COCC1CN(C(=O)Cc2ccsc2)Cc2c1cnn2C (stereo not drawn)")
-67
>>> result_number("COc1ccc(-c2nc(CN3CCCC(OC)C3)c(C)o2)c(F)c1 (stereo not drawn)")
-37.8

Problem: // query cytotoxicity at 10 µM value for entry "CN1CCC(c2nnc(CN3CCC(O)CC3)n2C)CC1"
Result: -8.94

Problem: // query cytotoxicity at 10 µM value for entry "CCN(CC)Cc1ccccc1NC(=O)N(C)Cc1ccccc1O"
Result: -1.57

====

test: Toxicity liver stage against HepG2, at 10uM; assay type: cell-based; parameters: test concentration 10 uM, cell line HepG2-A16-CD81EGFP; conditions: human, HepG2-A16-CD81EGFP cells; read-out: INHIBITION
Endpoint Name: cytotoxicity at 10 µM
State the value, then name its unit.

>>> result("Cc1nc(CSCc2ccc(OCC(F)(F)F)nc2)no1")
"-2.34%"

Problem: // query cytotoxicity at 10 µM value for entry Cc1nccn1C1CCCN(C(=O)COCC2CC2)C1 (stereo not drawn)
Result: -11.7%

Problem: // query cytotoxicity at 10 µM value for entry "CCc1cccc(N2CCC(NC(=O)c3ccc(=O)[nH]n3)CC2)c1"
Result: 5.8%

Problem: // query cytotoxicity at 10 µM value for entry "CCN1CCCC12CCN(Cc1cccnc1OC)CC2"
Result: 13.4%

Problem: // query cytotoxicity at 10 µM value for entry "CN(Cc1n[nH]c2c1CCCC2)c1nc(C2CC2)nc2c1CCNCC2"
Result: -10.3%

Problem: // query cytotoxicity at 10 µM value for entry Cc1cc(C2CCCN(C(=O)c3cccnc3)C2)ccn1 (stereo not drawn)
Result: -21.3%

Problem: // query cytotoxicity at 10 µM value for entry CCn1c(C)nnc1CN(C)C1CCN(CCc2ccncc2)C1 (stereo not drawn)
Result: 3.97%

Problem: // query cytotoxicity at 10 µM value for entry "Cc1csc(CN(C)C(=O)c2cccc(CCC(C)(C)O)c2)n1"
Result: -2.32%

Problem: // query cytotoxicity at 10 µM value for entry "Cc1ccc(N2CC[C@H]3O[C@@H](C(=O)N4CCCCO4)CC[C@H]32)nn1"
Result: 5.37%

Problem: // query cytotoxicity at 10 µM value for entry CN(Cc1cnc(N)nc1)CC1CCCN(CCc2ccc(Cl)cc2)C1 (stereo not drawn)
Result: -0.849%

Problem: // query cytotoxicity at 10 µM value for entry COc1ccccc1CNC(=O)CN(C)C(C)c1ccncn1 (stereo not drawn)
Result: -4.73%

Problem: // query cytotoxicity at 10 µM value for entry "O=S1(=O)C[C@@H]2[C@H](C1)N(Cc1cc(Cl)cc(Cl)c1)CCN2CC1CC1"
Result: 27.6%

Problem: // query cytotoxicity at 10 µM value for entry "Cc1cccc(CNC[C@H]2Cn3ccnc3CO2)n1"
Result: 3.15%

Problem: // query cytotoxicity at 10 µM value for entry "CCCN1CCN(C(=O)Nc2ccccc2Cl)[C@H]2CS(=O)(=O)C[C@H]21"
Result: 1.54%

Problem: // query cytotoxicity at 10 µM value for entry "CC(C)N1CCN(C)C2(CCN(C(=O)c3ccnnc3)CC2)C1=O"
Result: 8.64%

Problem: // query cytotoxicity at 10 µM value for entry CCNC(=O)C1CCN(c2cc(-c3ccccc3F)nc3ccnn23)C1 (stereo not drawn)
Result: 4.31%

Problem: // query cytotoxicity at 10 µM value for entry "O=c1cc(CN2CCCC2)nc2n1CCCN(Cc1ccsc1)C2"
Result: -6.44%

Problem: // query cytotoxicity at 10 µM value for entry COc1ccc(CCN(C)C2CCCN(Cc3noc(C)n3)C2)cc1 (stereo not drawn)
Result: -4.59%

Problem: // query cytotoxicity at 10 µM value for entry "CCNc1cc2c(nn1)CCN(C(=O)c1c(C)noc1C)C2"
Result: -5.76%

Problem: // query cytotoxicity at 10 µM value for entry CC(C)(C)c1cc(CN2CCOC(CCc3ccccc3)C2)n[nH]1 (stereo not drawn)
Result: -5.34%
